# Test system: KB
# method-description: Cytotoxicity against human KB cells
# Format: functional
Please go through the items and note down their ED50.
Give bare numbers, in ×10⁻⁴ ug/ml.

compound	data-value
CCCCCCC(O)CCC[C@H](O)[C@@H]1CC[C@@H]([C@@H]2CC[C@H]([C@H](O)CCCCCCCCCCC3=C[C@H](C)OC3=O)O2)O1 (stereo not given in full) [CAROLIN C]	2

// switching to the query compound
Which ED50 reading was recorded for the compound CCCCCC[C@H](O)CCC[C@H](O)[C@H]1CC[C@H]([C@H]2CC[C@H]([C@H](O)CCCCCCCCCCCCC3=C[C@H](C)OC3=O)O2)O1 [SQUAMOCIN] ?
4

* * *

# Tested on: KB
# method-description: Cytotoxicity against human KB cells
# Format: functional
recorded-metric: ED50

For the 3 molecules below, give their ED50 values.
1. CCCCCC(O)CCCC[C@H](O)[C@@H]1CC[C@@H]([C@@H]2CC[C@H]([C@H](O)CCCCCCCCCCCCC3=C[C@H](C)OC3=O)O2)O1 (stereo partly drawn) [CAROLIN B]
2. CCCCCCC(O)CCC[C@H](O)[C@@H]1CC[C@@H]([C@@H]2CC[C@H]([C@H](O)CCCCCCCCCCCCC3=C[C@H](C)OC3=O)O2)O1 (stereo partly drawn) [CAROLIN A]
3. CCCCCC(O)C(O)CCC[C@H](O)[C@H]1CC[C@@H]([C@@H]2CC[C@@H]([C@@H](O)CCCCCCCCCCCCC3=C[C@H](C)OC3=O)O2)O1 (stereo partly drawn) [SPINENCIN]

1: 5 ×10⁻⁶ ug/ml; 2: 1 ×10⁻⁷ ug/ml; 3: 1 ×10⁻⁵ ug/ml
